Origin of values: paper PMC9967275

TGT: cruzain (Trypanosoma cruzi, UniProt P25779)
Sequence (P25779 123-337 limits assumed): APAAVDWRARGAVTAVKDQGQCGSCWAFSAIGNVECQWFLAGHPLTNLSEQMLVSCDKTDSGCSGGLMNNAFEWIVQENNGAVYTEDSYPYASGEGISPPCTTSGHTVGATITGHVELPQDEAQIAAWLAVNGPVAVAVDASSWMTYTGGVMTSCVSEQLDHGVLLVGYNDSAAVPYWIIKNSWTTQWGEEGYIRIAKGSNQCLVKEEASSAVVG
ASSAY EXPLANATION: biochemical;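 also: at 5 µM compound concentration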
SETUP CONDITIONS: 10’ (pre-incubation); sheet Screening results
Parameter Cruzain Inhibition 10’: see the listing below.
Kindly provide the numeric value in % only, without the unit symbol.

Example entries begin here.
# COMPOUND, TGT, EXPERIMENTAL VALUE
measured = [
    ("c1ccc(Oc2ccc(-c3cc(C4CCOCC4)[nH]n3)cc2)cc1", "cruzain (Trypanosoma cruzi, UniProt P25779)", 7),
    ("N=C(N)c1ccc(-c2cc(-c3ccccc3)on2)cc1", "cruzain (Trypanosoma cruzi, UniProt P25779)", 13),
    ("O=C(Nc1ccnc(-c2cccnc2)n1)c1cc(C(F)(F)F)cc(C(F)(F)F)c1", "cruzain (Trypanosoma cruzi, UniProt P25779)", 16),
    ("CC(=O)NCC1CN(c2ccc(-c3ccc(CO)cc3)c(F)c2)C(=O)O1 (centres unmarked)", "cruzain (Trypanosoma cruzi, UniProt P25779)", -2),
    ("O=C(Nc1ccc2c(c1)B(O)OC2)c1ccccc1C(F)(F)F", "cruzain (Trypanosoma cruzi, UniProt P25779)", 16),
    ("COc1ccccc1CNC(=O)c1cc(C2CC2)nc2c1cnn2C(C)C", "cruzain (Trypanosoma cruzi, UniProt P25779)", 7),
]

Exam item: Entry `CCCCS(=O)(=O)Nc1ccc2cnn(C)c2c1` has what Cruzain Inhibition 10’?
Marked response: -6

Exam item: Value lookup for Cruzain Inhibition 10’; key = CC1CCCCN1C(=O)NCCc1coc(-c2ccc(F)cc2)n1 (centres unmarked)
Marked response: 10

Exam item: I have this compound here, `CCCn1c(CNc2ccccc2O)nc2ccccc21` , and I need its recorded Cruzain Inhibition 10’.
Marked response: 3.6

Exam item: // returns reported Cruzain Inhibition 10’ for input `CCOc1ccc(-c2nc(NC(=O)CS(=O)(=O)c3ccccc3)sc2C)cc1`
Marked response: 10

Exam item: Entry under review: `O=C(C1CCCCC1)N1CC(=O)N2CCc3ccccc3[C@@H]2C1` . Reported Cruzain Inhibition 10’?
Marked response: 18

Exam item: Query (compound): `O[C@@H](c1cc(C(F)(F)F)nc2c(C(F)(F)F)cccc12)[C@H]1CCCCN1` ; field requested: Cruzain Inhibition 10’
Marked response: -9

Exam item: Cruzain Inhibition 10’ lookup needed for `CCOC(=O)NC(=O)c1ccsc1NC(=O)c1nc2ccccc2s1` , thanks.
Marked response: 3

Exam item: Given the entry CC(C)(C)C(O)C(Oc1ccc(-c2ccccc2)cc1)n1cncn1 (centres unmarked) , report its measured Cruzain Inhibition 10’.
Marked response: 9

Exam item: Look up Cruzain Inhibition 10’: `COc1ccc(-c2nc(-c3cccc(NC(=O)Cc4ccc(F)cc4)c3)no2)cc1OC`
Marked response: 4

Exam item: Which value of Cruzain Inhibition 10’ has been reported for `CC(=O)N1CCc2cc3nc(C)cc(C)c3cc21` in the records?
Marked response: 11

Exam item: Query (compound): `O=C(Nc1nc(-c2ccccn2)cs1)c1cncn1-c1ccccc1` ; field requested: Cruzain Inhibition 10’
Marked response: -84

Exam item: What does the data say about its Cruzain Inhibition 10’? Entry: CNC(=O)C1Cc2ccccc2N1C(=O)Cc1ccc(F)cc1 (centres unmarked)
Marked response: 10

Exam item: Give the measured Cruzain Inhibition 10’ of `CC(=O)NC[C@@H]1CN(c2ccc(N3CCOCC3)c(F)c2)C(=O)O1` .
Marked response: -4

Exam item: I am curious: what Cruzain Inhibition 10’ value has been reported for `Cc1ccc2oc(-c3cc(NC(=O)Cc4ccccc4)ccc3Cl)nc2c1` ?
Marked response: 5
